SYSTEM TESTED: human C5aR(CD88) (Homo sapiens, UniProt P21730)
Construct: expressed in transfected cells; host or cells: rat basophilic leukemia cells (RBL)
Sequence (P21730 1-350): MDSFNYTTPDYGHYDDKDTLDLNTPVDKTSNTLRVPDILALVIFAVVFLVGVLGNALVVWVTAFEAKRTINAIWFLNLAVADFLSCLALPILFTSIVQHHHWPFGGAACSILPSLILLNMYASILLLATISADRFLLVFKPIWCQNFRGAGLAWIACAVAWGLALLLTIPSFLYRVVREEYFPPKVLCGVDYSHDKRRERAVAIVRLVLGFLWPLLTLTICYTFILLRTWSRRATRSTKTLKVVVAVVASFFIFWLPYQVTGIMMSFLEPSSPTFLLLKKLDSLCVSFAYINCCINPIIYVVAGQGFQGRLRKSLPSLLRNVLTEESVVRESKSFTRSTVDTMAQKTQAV
EXPERIMENT: Determination of the IC50 value in an enzyme release assay (functional assay, antagonistic activity)
Type: cell-based
MEASUREMENT CONTEXT: antagonistic activity; IC50 group in enzyme release assay, RBL cells expressing human C5aR(CD88); read-out: activity (group)
Positions of bridges follow the written chain, without caps; N, C: chain ends. Non-standard residues stand in square brackets, D forms with d. Residues, ends and D or L forms follow the SMILES beside them. *: point of attachment. Phe(4-NH2) = Nc1ccc(C[C@H](N)C(=O)O)cc1; dCha = N[C@H](CC1CCCCC1)C(=O)O; Butoxycarbonyl = CCCCOC(=O)*; Orn = NCCC[C@H](N)C(=O)O
# maps each entry to its IC50

Example compounds with recorded IC50:
[
  {
    "COMPOUND": "CC(=O)N[C@@H](Cc1ccccc1)C(=O)N[C@H]1CCCNC(=O)[C@H](Cc2ccc(N)cc2)NC(=O)[C@H](Cc2c[nH]c3ccccc23)NC(=O)[C@@H](CC2CCCCC2)NC(=O)[C@@H]2CCCN2C1=O [Compound 14, Ac-Phe-[Orn-Pro-cha-Trp-Paf]] (Ac-F[Orn]P[dCha]W[Phe(4-NH2)]; lactam 2-C (inferred))",
    "SYSTEM TESTED": "human C5aR(CD88) (Homo sapiens, UniProt P21730)",
    "IC50": "20 to 50 nM"
  },
  {
    "COMPOUND": "CCCCOC(=O)N[C@@H](Cc1ccccc1)C(=O)N[C@@H](CCCN)C(=O)N1CCC[C@H]1C(=O)N[C@H](CC1CCCCC1)C(=O)N[C@@H](Cc1c[nH]c2ccccc12)C(=O)N[C@@H](Cc1ccccc1)C(N)=O [Compound 86, Bu-O—CO-Phe-Orn-Pro-cha-Trp-Phe-NH2] (Butoxycarbonyl-F[Orn]P[dCha]WF-NH2)",
    "SYSTEM TESTED": "human C5aR(CD88) (Homo sapiens, UniProt P21730)",
    "IC50": "200 to 2000 nM"
  },
  {
    "COMPOUND": "CCCC[C@@H]1NC(=O)[C@H](Cc2c[nH]c3ccccc23)NC(=O)[C@@H](CC2CCCCC2)NC(=O)[C@@H]2CCCN2C(=O)[C@@H](NCc2ccccc2)CCCNC1=O [Compound 56, Ph-CH2-[Orn-Pro-cha-Trp-Nle]]",
    "SYSTEM TESTED": "human C5aR(CD88) (Homo sapiens, UniProt P21730)",
    "IC50": "20 to 50 nM"
  }
]

Here's the next entry for you.
Exercise: Notebook: pull reported IC50 for human C5aR(CD88) (Homo sapiens, UniProt P21730), entry CC(=O)N[C@@H](Cc1ccccc1)C(=O)N[C@@H](CCCNC(=N)N)C(=O)N1CCC[C@H]1C(=O)N[C@H](CC1CCCCC1)C(=O)N[C@@H](Cc1c[nH]c2ccccc12)C(=O)N[C@@H](Cc1ccccc1)C(N)=O [Compound 88, Ac-Phe-Arg-Pro-cha-Trp-Phe-NH2] (Ac-FRP[dCha]WF-NH2)
Solution: 20 to 50 nM
